System: K562
assay procedure: NCI tumour cell line growth inhibition, 48 h
Active and inactive are the calls of the source. Cut-off read from the data, not from the text of the source: active = GI50 up to about 1.1 µM and inactive = higher.
Could you please pick one outcome from this set? label 1 = active, label 0 = inactive

These solved cases illustrate the format of a correct answer.
compound: CC(C)(C)c1cc(/C=C(\C#N)C(=O)NCCO)cc(C(C)(C)C)c1O
class name: label 0

compound: O=C(CCC(=O)Nc1ccc(Cl)c(Cl)c1)CC(=O)c1ccc(Br)cc1
class name: label 0

compound: COc1ccc2cc(CNCCCCCCNC(=O)Nc3cccc4ccccc34)ccc2c1
class name: label 0

compound: Cn1c(=O)c2sc3c4sc5c(=O)n(C)c6ccccc6c5c4sc3c2c2ccccc21
class name: label 0

compound: O=C1N[C@@H]([C@H](CCCCCO)OC(=O)c2ccccc2)CO1
class name: label 0

compound: CC(O)c1ccc(C(O)/C(=N\NC(=O)c2ccncc2)c2nc3ccc([N+](=O)[O-])cc3nc2O)cc1 (stereo not given)
class name: label 0

compound: CC1CCCc2c(CC3CC(=O)NC(=O)C3)nc(N)nc21 (stereo not given)
class name: label 0

compound: CCOP(=O)(OCC)C(Nc1ccc(F)cc1)c1ccccc1 (stereo not given)
class name: label 0

compound: [C-]#[N+]C(=C\c1ccc(O)cc1)/C(=C/c1ccc(O)cc1)[N+]#[C-]
class name: label 1

Exam item: Answer briefly: the call reported for C/C(=C\CC/C=C(\C)CC/C=C(\C)CCC1SC1(C)C)CC/C=C(\C)CCC1OC1(C)C (stereo not given) in this assay.
Marked response: label 0

----------
System: SF-539
assay procedure: NCI tumour cell line growth inhibition, 48 h
Calls of active or inactive are those of the source. No stated cut-off is given here; in the data, active = GI50 up to about 1.1 µM and inactive = higher.
endpoint name: GI50

molecule: COC1OC(Cc2nnc(C)o2)C(OCc2ccccc2)C(OCc2ccccc2)C1OCc1ccccc1 (stereo not given)
endpoint name: GI50
test value: 38.3 µM (inactive)

molecule: CCS(=O)(=O)CCn1cnc2c1c(=O)n(C)c(=O)n2C
endpoint name: GI50
test value: > 100 µM (inactive)

molecule: CC(NC(=O)c1c(O)[nH]c(=S)[nH]c1=O)c1ccc([N+](=O)[O-])cc1 (stereo not given)
endpoint name: GI50
test value: 82.2 µM (inactive)

molecule: CC1=[N+](C)CCN1C
endpoint name: GI50
test value: > 100 µM (inactive)

Now let's try a different one.
Exam item: Please give measured GI50 of the following entry: Nc1ccc(C(=O)NN2C(=O)C(Cl)C2c2ccccc2)cc1 (stereo not given)
Marked response: > 100 µM (inactive)

----------
Test system: OVCAR-3
assay procedure: NCI tumour cell line growth inhibition, 48 h
Calls of active or inactive are those of the source. Cut-off read from the data, not from the text of the source: active = GI50 up to about 1.1 µM and inactive = higher.
GI50 for assorted compounds

The cases that follow already have their GI50 on record.
compound: CC(C)(C)NC(=O)NC12CC3CC(CC(F)(C3)C1)C2
test value: > 100 µM (inactive)

compound: COc1cc(/C=C2\C(=O)N(C(=O)Cc3ccccc3)N=C2C)cc(OC)c1OC
test value: > 100 µM (inactive)

compound: O=C1N[C@@H]([C@H](CCCCCO)OC(=O)c2ccccc2)CO1
test value: > 100 µM (inactive)

compound: Cc1ncc([N+](=O)[O-])n1CCNC(=O)CCn1ccnc1[N+](=O)[O-]
test value: > 100 µM (inactive)

compound: CC[C@]1(c2ccc3c(c2)OCO3)C=[N+]([O-])O[C@H](OC2CCCC2(c2ccccc2)c2ccccc2)[C@@H]1OC(C)=O (stereo not given in full)
test value: 1.81 µM (inactive)

Exam item: Please give measured GI50 of the following entry: COc1ccc(C(=O)C(c2ccc(OC)cc2)C2(O)C(=O)Nc3c2ccc(Cl)c3C)cc1 (stereo not given)
Marked response: > 100 µM (inactive)

----------
The listing below reports GI50 for compounds tested on HCT-15.
Number in µM, nothing else.

Exam item: Please give measured GI50 of the following entry: O=C1C=CC2(O[C@@H](Cc3ccccc3)[C@H](Cc3ccccc3)O2)C(SC(=O)c2ccccc2)C1 (stereo not given in full)
Marked response: 0.298

Exam item: Please give measured GI50 of the following entry: `CCOc1ccc2[nH]c3c(C)c4ccncc4c(C)c3c2c1`
Marked response: 0.448

Exam item: Please give measured GI50 of the following entry: CC(C)(C)c1ccc(O)c(C(O)c2ccccn2)c1 (stereo not given)
Marked response: 35.4

Exam item: Please give measured GI50 of the following entry: `O=C(/C=C/c1ccccc1F)C(c1ccccc1)c1ccccc1`
Marked response: 4.31

Exam item: Please give measured GI50 of the following entry: O=C(/C(=N\Nc1ccc([N+](=O)[O-])cc1[N+](=O)[O-])NC12CC3CC(CC(C3)C1)C2)C(Br)C(=O)c1ccccc1 (stereo not given)
Marked response: 4.99

Exam item: Please give measured GI50 of the following entry: CCOC(=O)CCC(C(=O)OCC)n1nnc2cc(Nc3c(C)[n+]([O-])c4ccc(Cl)cc4[n+]3[O-])ccc21 (stereo not given)
Marked response: 53.7

Exam item: Please give measured GI50 of the following entry: CCC1CN2CCc3cc(OC)c(OC)cc3C2CC1CC1c2cc(OC)c(OC)cc2CCN1C(=O)C1CCCN1C(=O)OCc1ccccc1 (stereo not given)
Marked response: 16.2

----------
System: HT-29
assay procedure: NCI tumour cell line growth inhibition, 48 h
Active and inactive are the calls of the source. No stated cut-off is given here; in the data, active = GI50 up to about 1.1 µM and inactive = higher.
Could you please pick one outcome from this set? Y = active, N = inactive

These solved cases illustrate the format of a correct answer.
molecule: O=C(CC(Cl)(Cl)C(Cl)(Cl)Cl)c1ccccc1
subject of test: HT-29
class name: N

molecule: O=C(CNC(c1ccccc1)(c1ccccc1)c1ccccc1)NC1CCCCC1NC(=O)CNC(c1ccccc1)(c1ccccc1)c1ccccc1 (stereo not given)
subject of test: HT-29
class name: N

molecule: CCOc1nnnc2[nH]cnc12
subject of test: HT-29
class name: N

molecule: C/C(CC(=O)NCCc1ccccc1)=N\NS(=O)(=O)c1ccc(C)cc1
subject of test: HT-29
class name: N

Exam item: Answer briefly: the call reported for C=C1CC(OC)(C(O)C(=O)N[C@H]2OCO[C@H]3C2O[C@H](C[C@@H](CO)OC)C(C)(C)C3OC)O[C@H](C)[C@@H]1C (stereo not given in full) in this assay.
Marked response: Y

----------
Tested on: SNB-78
assay procedure: NCI tumour cell line growth inhibition, 48 h
Calls of active or inactive are those of the source. Cut-off read from the data, not from the text of the source: active = GI50 up to about 1.1 µM and inactive = higher.
GI50 for assorted compounds

The cases that follow already have their GI50 on record.
compound: Cc1c2[nH]c3ccc(Br)cc3c2c(C)c2nccc(O)c12
subject of test: SNB-78
endpoint name: GI50
test value: 16.2 µM (inactive)
--
compound: CNC(=S)NC1CCCCC1NC(=S)NC (stereo not given)
subject of test: SNB-78
endpoint name: GI50
test value: > 100 µM (inactive)
--
compound: Cc1ccc(Sc2cc([N+](=O)[O-])cc(Sc3ccc(C)cc3)c2Sc2ccc(C)cc2)cc1
subject of test: SNB-78
endpoint name: GI50
test value: > 100 µM (inactive)

Exam item: Please give measured GI50 of the following entry: `N/C(=N\O)N/N=C\c1c2ccccc2c(Cl)c2ccccc12`
Marked response: 12 µM (inactive)

Exam item: Please give measured GI50 of the following entry: C/C(C=O)=C1\C(O)C[C@]1(C)C1CC(C)(C)CC1O (stereo not given in full)
Marked response: > 100 µM (inactive)

Exam item: Please give measured GI50 of the following entry: CC(O)c1ccc(C(O)/C(=N\NC(=O)c2ccncc2)c2nc3ccc([N+](=O)[O-])cc3nc2O)cc1 (stereo not given)
Marked response: > 100 µM (inactive)

Exam item: Please give measured GI50 of the following entry: `O=C(CCC(=O)Nc1ccc(Cl)c(Cl)c1)CC(=O)c1ccc(Br)cc1`
Marked response: > 100 µM (inactive)

Exam item: Please give measured GI50 of the following entry: `N#C/C(=C\c1ccc2[nH]ccc2c1)C(=O)NCCCCNC(=O)/C(C#N)=C/c1ccc2[nH]ccc2c1`
Marked response: > 100 µM (inactive)

Exam item: Please give measured GI50 of the following entry: `CN(c1ccccc1)c1c(-c2ccccc2)c(=O)oc2c1ccc1occc12`
Marked response: > 100 µM (inactive)

Exam item: Please give measured GI50 of the following entry: CCCCCCCCCCCCCCCCOCC(COP(=O)([O-])OCC[N+](C)(C)C)OCCCCCCCCCCCCCCCC (stereo not given)
Marked response: > 100 µM (inactive)

----------
GI50 for assorted compounds
System: LXFL 529
assay procedure: NCI tumour cell line growth inhibition, 48 h
Active and inactive are the calls of the source. No stated cut-off is given here; in the data, active = GI50 up to about 1.1 µM and inactive = higher.

compound: CC(=O)OC12c3ccccc3C1CCCCCC21OCCCO1 (stereo not given)
GI50: > 100 µM (inactive)
--
compound: CC(C)C1CN(C(=O)OCc2ccccc2)C2N1C(=O)C2(C)OCc1ccccc1 (stereo not given)
GI50: 28.7 µM (inactive)

Exam item: Please give measured GI50 of the following entry: `CC(=O)Nc1ccc(-c2nnc(SCC(=O)Nc3ccc([N+](=O)[O-])cc3)o2)cc1`
Marked response: 7.93 µM (inactive)

Exam item: Please give measured GI50 of the following entry: `Cc1cc(C)nc(NS(=O)(=O)c2ccc(NC(=O)c3cccc4c(Nc5ccc(S(=O)(=O)N=C(N)N)cc5)c5ccccc5nc34)cc2)n1`
Marked response: 3.88 µM (inactive)

Exam item: Please give measured GI50 of the following entry: CC(=O)OCC1OC(n2c(-c3ccc(N)cc3)cc(-c3ccco3)c(C#N)c2=O)C(OC(C)=O)C(OC(C)=O)C1OC(C)=O (stereo not given)
Marked response: 11.1 µM (inactive)

Exam item: Please give measured GI50 of the following entry: CC(O)c1ccc(C(O)/C(=N\NC(=O)c2ccncc2)c2nc3ccc([N+](=O)[O-])cc3nc2O)cc1 (stereo not given)
Marked response: 54.6 µM (inactive)

Exam item: Please give measured GI50 of the following entry: CC(C)c1ccc(C2NC(S)=NC3=C2c2ccccc2C3=O)cc1 (stereo not given)
Marked response: 38.3 µM (inactive)

Exam item: Please give measured GI50 of the following entry: COC(=O)C1=C(c2cc(OC)c(OC)c(OC)c2)OC(c2ccc3c(c2)OCO3)C1 (stereo not given)
Marked response: 25.3 µM (inactive)

Exam item: Please give measured GI50 of the following entry: `COc1ccc(C(=O)O/N=C2/CCC/C2=C\c2ccccc2)cc1`
Marked response: > 100 µM (inactive)

Exam item: Please give measured GI50 of the following entry: CC(=O)O[C@H]1CCC2[C@@H]3CCC4C(=O)c5oncc5C[C@]4(C)C3CC[C@@]21C (stereo not given in full)
Marked response: > 100 µM (inactive)

Data origin, for the record: ChEMBL document CHEMBL1201862
